Reported hERG current change (%, negative = inhibition) at 10uM values are given for each entry in this list.
# tested.on: human ether-à-go-go-related gene (hERG) potassium channel (human, UniProt Q12809)
# Sequence (Q12809 whole entry, looked up): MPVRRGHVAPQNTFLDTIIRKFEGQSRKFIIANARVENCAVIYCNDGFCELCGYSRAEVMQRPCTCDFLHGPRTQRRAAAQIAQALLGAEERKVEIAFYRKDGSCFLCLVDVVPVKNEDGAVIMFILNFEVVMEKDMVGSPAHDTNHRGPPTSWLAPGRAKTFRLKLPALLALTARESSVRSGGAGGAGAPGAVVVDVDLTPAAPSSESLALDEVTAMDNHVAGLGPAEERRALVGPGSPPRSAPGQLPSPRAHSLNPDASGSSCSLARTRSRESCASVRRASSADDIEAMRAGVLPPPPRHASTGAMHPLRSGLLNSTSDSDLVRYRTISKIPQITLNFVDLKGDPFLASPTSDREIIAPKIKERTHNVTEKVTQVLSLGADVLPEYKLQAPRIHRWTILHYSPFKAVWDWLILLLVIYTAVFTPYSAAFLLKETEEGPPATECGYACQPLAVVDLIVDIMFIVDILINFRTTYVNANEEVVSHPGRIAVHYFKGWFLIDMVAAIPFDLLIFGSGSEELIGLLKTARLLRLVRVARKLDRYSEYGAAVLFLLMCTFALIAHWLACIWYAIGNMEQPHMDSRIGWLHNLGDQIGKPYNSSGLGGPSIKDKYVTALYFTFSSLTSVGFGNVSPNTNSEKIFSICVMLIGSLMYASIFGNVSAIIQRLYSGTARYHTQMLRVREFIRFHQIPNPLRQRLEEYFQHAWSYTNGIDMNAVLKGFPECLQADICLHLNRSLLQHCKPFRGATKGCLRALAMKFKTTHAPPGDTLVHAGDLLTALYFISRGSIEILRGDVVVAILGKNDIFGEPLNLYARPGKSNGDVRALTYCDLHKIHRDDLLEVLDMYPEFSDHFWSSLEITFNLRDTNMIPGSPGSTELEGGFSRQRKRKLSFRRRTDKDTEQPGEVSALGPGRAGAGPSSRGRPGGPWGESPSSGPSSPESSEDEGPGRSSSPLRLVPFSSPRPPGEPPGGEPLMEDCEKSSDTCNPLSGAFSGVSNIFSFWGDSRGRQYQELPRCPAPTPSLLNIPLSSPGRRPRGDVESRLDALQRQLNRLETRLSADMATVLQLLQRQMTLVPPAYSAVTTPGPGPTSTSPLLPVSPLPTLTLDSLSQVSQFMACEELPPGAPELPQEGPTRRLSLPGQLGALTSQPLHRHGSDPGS
# assay.summary: primary screen, population patch clamp on CHO cells stably expressing hERG; higher = less effect of the substance;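 further: peak tail current of the secondary pulse compared with the same well before compound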
The campaign covered roughly 310,000 compounds. About 14,000 (4.5%) showed an effect of 50% or more. Effects have a minus sign here. The list comes from a sample in which strong results are over-represented; it also holds close analogues and randomly drawn compounds.
reported.metric: hERG current change (%, negative = inhibition) at 10uM (%)

# molecule, val
measured = [
    ("Cc1nn(-c2ccccn2)c2c1-c1nc(N)ncc1CC2", 5.03),
    ("COc1ccc(-c2ccc(=O)n(CC(=O)Nc3nnc(C(C)C)s3)n2)cc1OC", 11.9),
    ("CCOC(=O)NC(Nc1sc2c(c1C(=O)OC)CCN(C)C2)(C(F)(F)F)C(F)(F)F", -13.2),
    ("O=C(Nc1ccccc1N1CCCC1)c1ccc2c(c1)OCO2", -3.23),
    ("COc1ccccc1N(C(=O)c1snc(C(N)=O)c1N)C(C(=O)NC1CCCC1)c1ccco1 (centres unmarked)", -35.4),
    ("COC(=O)C1=C(C)OC(N)=C(C#N)C1c1cc(C)sc1C (centres unmarked)", -0.682),
    ("O=C(Nc1ccc(N2CCN(C(=O)c3ccccc3)CC2)c(Cl)c1)c1cccnc1", -31.2),
    ("COc1ccc2c(CC(=O)OCC(=O)Nc3ccccc3[N+](=O)[O-])coc2c1", 19.4),
    ("CC(=O)N1CCN(c2ccc(NC(=O)c3cccc(Cl)c3Cl)cc2)CC1", -8.8),
    ("CCOC(=O)COc1coc(CN2CCN(c3ccccc3)CC2)cc1=O", 9.43),
    ("O=C(Cc1ccccc1)NCc1nc2ccccc2[nH]1", -6.31),
    ("CCOC(=O)Cc1csc(NC(=O)c2ccc(S(=O)(=O)N3CCOCC3)cc2)n1", -2.52),
    ("CN1CCN(c2ccc(NC(=O)c3cccc(OCc4ccccc4)c3)cc2)CC1", -8.95),
    ("O=C(Nc1ccccc1N1CCN(C(=O)c2ccc(Cl)cc2)CC1)c1cccnc1", -73.2),
    ("COc1ccc(F)cc1C(=O)C1CCCN(C(=O)c2ccc(C(C)=O)s2)C1 (centres unmarked)", -4.71),
    ("CSc1ccccc1NC(=O)COc1ccc(Cl)cc1", -17.5),
    ("CN1CCN(c2ccccc2NC(=O)c2cccc(OCc3ccccc3)c2)CC1", -78.9),
    ("CCN1CCN(C(=O)CCNC(=O)Cn2ccc3ccccc3c2=O)CC1", 13.9),
    ("CCn1c(=O)n(CC(=O)NCc2ccccc2OC)c(=O)c2ccccc21", 8.2),
    ("O=C(c1cccc(N2C(=O)C3CC=CCC3C2=O)c1)N1CCCCCC1 (centres unmarked)", -3.26),
]

====

# tested.on: human ether-à-go-go-related gene (hERG) potassium channel (human, UniProt Q12809)
# assay.summary: primary screen, population patch clamp on CHO cells stably expressing hERG; higher = less effect of the substance
# Protocol: Briefly, Chinese hamster ovary (CHO) cells stably expressing the hERG channel were dislodged from tissue culture flasks and dispensed into PPC plates. […] During the recording, background leak currents were estimated by a 100 ms step to -80 mV from an initial holding potential of -70 mV and subtracted from the subsequent current measurement. The campaign was conducted in two phases using slight differences in recording protocol. […]
The whole screen tested about 310,000 compounds, of which about 14,000 (4.5%) showed an effect of 50% or more. The effect is printed as a negative number. Only a selection was taken, and strong results are over-represented in it overall.
Hi, to clarify the labels: T covers hERG current change (%, negative = inhibition) at 10uM from -20% upward, F covers anything below -20%.

# molecule, category.label
rows = [
    ("Cc1ccc(S(=O)(=O)NCc2ccc(C(=O)NCCCN3CCC(Cc4ccccc4)CC3)cc2)cc1", "F"),
    ("Cc1cn2nc(N)c3ccccc3c2n1", "T"),
    ("O=C(NCc1ccccc1)N1CCC(Cc2ccccc2)CC1", "T"),
    ("COc1ccccc1N(CC(=O)Nc1ccc(F)c(F)c1)S(C)(=O)=O", "T"),
    ("CC(C)(C)NS(=O)(=O)c1ccc(NC(=O)Cc2ccccc2[N+](=O)[O-])cc1", "T"),
    ("O=C(Nc1cccc2[nH]ncc12)c1ccc(F)cc1", "T"),
    ("CCOC(=O)N1CCN(CC(=O)Nc2ccc([N+](=O)[O-])cc2C(=O)Nc2ccccc2F)CC1", "F"),
    ("COc1ccc(-c2cnc3n2CCCCC3)cc1", "F"),
    ("CCS(=O)(=O)NCC(c1cccnc1)N1CCN(c2ccccc2)CC1 (stereo not shown)", "F"),
    ("COCCNC(=O)c1ccc(CN2CCC(Cc3ccccc3)CC2)cc1", "T"),
    ("COc1ccc(S(=O)(=O)N2CCOCC2)cc1NC(=O)CSc1nnc(C2CC2)n1C1CC1", "T"),
    ("Cc1ccc2c(c1)C(c1ccccc1)N(C(=O)CC(C)C)CC(=O)N2 (stereo not shown)", "F"),
    ("CC(=O)Nc1ccc(S(=O)(=O)NCc2ccc(C(=O)NCCCN3CCC(C)CC3)cc2)cc1", "T"),
    ("NC(=O)c1ccc(CN2CCC(Cc3ccccc3)CC2)cc1", "F"),
    ("O=C(Nc1ccc(Oc2ccc(NC(=O)c3ccco3)c(NC(=O)c3ccco3)c2)cc1)c1ccco1", "T"),
    ("O=C(NCC(c1cccnc1)N1CCN(c2ccccc2)CC1)Oc1ccccc1 (stereo not shown)", "T"),
    ("CN1CCN(C(=O)c2cc3cc(Cl)ccc3[nH]2)CC1.Cl", "F"),
    ("CSc1nc2c(cc1C#N)CCCCC2", "T"),
    ("O=C(Nc1cccc2ccccc12)NC1CCCCC1O (stereo not shown)", "T"),
    ("Cc1cc([N+](=O)[O-])ccc1NC(=O)CN1CCN(Cc2ccccc2)CC1", "F"),
    ("COc1ccc(-c2nc(N)n[nH]2)cc1OC", "T"),
    ("O=C(NCc1ccccc1)c1ccc(CN2CCC(Cc3ccccc3)CC2)cc1", "F"),
    ("O=C(NCC(c1cccnc1)N1CCN(c2ccc(F)cc2)CC1)C1CCCCC1 (stereo not shown)", "F"),
    ("CCOc1ccc(-c2cnc3n2CCCCC3)cc1", "F"),
    ("Cc1cc(C(=O)OCC(=O)c2ccc(Cl)c([N+](=O)[O-])c2)c2cccc(C)c2n1", "T"),
    ("Cc1ccc(CC(=O)Nc2ccc([N+](=O)[O-])cc2C)cc1", "T"),
    ("COc1ccccc1N1CCN(C(CNS(=O)(=O)c2cc(F)ccc2F)c2cccnc2)CC1 (stereo not shown)", "F"),
    ("O=C(NN1CCOCC1)c1sc2cccc(F)c2c1Cl", "T"),
    ("C=CCNC(=O)c1ccc(CN2CCC(Cc3ccccc3)CC2)cc1", "F"),
    ("CCOc1ccc(-c2cnc3n2CCC3)cc1.Cl", "T"),
    ("O=S(=O)(NCC(c1cccnc1)N1CCN(Cc2ccccc2)CC1)c1cc(F)ccc1F (stereo not shown)", "F"),
    ("Cc1ccc(C)c(N2CCN(CC(=O)Nc3ccc([N+](=O)[O-])cc3C(=O)Nc3ccccc3F)CC2)c1", "T"),
    ("O=C(c1cc2cc(F)ccc2[nH]1)N1CCN(c2ccc(F)cc2)CC1", "T"),
    ("Cc1ccc([N+](=O)[O-])cc1NC(=O)CN1CCCCC1", "T"),
    ("O=C(Nc1ccccc1)c1ccc(CN2CCC(Cc3ccccc3)CC2)cc1", "T"),
    ("O=C(NCc1ccc(Cl)cc1)C(=O)NCC(c1cccnc1)N1CCN(c2ccc(F)cc2)CC1 (stereo not shown)", "F"),
    ("CCOC(=O)N1CCN(C(=O)c2cc3cc(Cl)ccc3[nH]2)CC1", "T"),
    ("O=C1c2ccccc2C(=O)N1CCc1csc(-c2cccc(F)c2)n1", "F"),
    ("CCN1CCN(C(=O)c2cc3cc(F)ccc3[nH]2)CC1", "F"),
]
